These records show HepSE_cholecystitis for Hepatotoxicity.
Keep it simple and answer with nothing but the number.

[[record]]
compound = "N[C@@H](Cc1cc(I)c(Oc2cc(I)c(O)c(I)c2)c(I)c1)C(=O)O"
measurement_name = "HepSE_cholecystitis"
assay_value = 0

[[record]]
compound = "Oc1ncnc2[nH]ncc12"
measurement_name = "HepSE_cholecystitis"
assay_value = 0

[[record]]
compound = "CC1(C)S[C@@H]2[C@H](NC(=O)C(C(=O)Oc3ccc4c(c3)CCC4)c3ccccc3)C(=O)N2[C@H]1C(=O)[O-].[Na+] (some centres undefined) [CARBENICILLIN INDANYL SODIUM]"
measurement_name = "HepSE_cholecystitis"
assay_value = 0

[[record]]
compound = "C[C@](N)(Cc1ccc(O)c(O)c1)C(=O)O"
measurement_name = "HepSE_cholecystitis"
assay_value = 0

[[record]]
compound = "CO[C@@]1(NC(=O)C2SC(=C(C(N)=O)C(=O)O)S2)C(=O)N2C(C(=O)O)=C(CSc3nnnn3C)CS[C@@H]21 (some centres undefined)"
measurement_name = "HepSE_cholecystitis"
assay_value = 0


Input line: Would you please give the reported HepSE_cholecystitis of "C[C@@H](O)C(=O)O" with Hepatotoxicity?
Output line: 0

Input line: Fill in: HepSE_cholecystitis on Hepatotoxicity, entry NC(=O)N1c2ccccc2CC(=O)c2ccccc21 [OXCARBAZEPINE]
Output line: 0

Input line: Provide measured HepSE_cholecystitis on Hepatotoxicity for NS(=O)(=O)Cc1noc2ccccc12 [ZONISAMIDE] please.
Output line: 1

Input line: Lab note: Hepatotoxicity assay, enter HepSE_cholecystitis for CN(C)CCC(c1ccc(Cl)cc1)c1ccccn1 (centres undefined) here
Output line: 0

----------
Observed HepSE_Combined Scores values for Hepatotoxicity are listed in what follows.
Just the number.

[[record]]
compound = "CC[C@]1(O)C[C@H]2CN(CCc3c([nH]c4ccccc34)[C@@](C(=O)OC)(c3cc4c(cc3OC)N(C=O)[C@H]3[C@@](O)(C(=O)OC)[C@H](OC(C)=O)[C@]5(CC)C=CCN6CC[C@]43[C@@H]65)C2)C1"
assay_value = 0

[[record]]
compound = "CNCCc1ccccn1"
assay_value = 0

[[record]]
compound = "C=CC1=C(C(=O)O)N2C(=O)[C@@H](NC(=O)/C(=N\\O)c3csc(N)n3)[C@H]2SC1"
assay_value = 3

[[record]]
compound = "COC(=O)C1=C(C)NC(C)=C(C(=O)OC(C)C)C1c1cccc2nonc12 (stereo not given)"
assay_value = 1

[[record]]
compound = "CC(=O)N(CC(O)CN(C(C)=O)c1c(I)c(C(=O)NCC(O)CO)c(I)c(C(=O)NCC(O)CO)c1I)c1c(I)c(C(=O)NCC(O)CO)c(I)c(C(=O)NCC(O)CO)c1I (stereo not given)"
assay_value = 0

[[record]]
compound = "NC(=O)N1c2ccccc2C=Cc2ccccc21 [CARBAMAZEPINE]"
assay_value = 4

[[record]]
compound = "C[C@@H](CN1CC(=O)NC(=O)C1)N1CC(=O)NC(=O)C1"
assay_value = 0

[[record]]
compound = "OC[C@H]1O[C@@H](n2cnc3c2NC=NC[C@H]3O)C[C@@H]1O"
assay_value = 3

[[record]]
compound = "CCCCC1=NC2(CCCC2)C(=O)N1Cc1ccc(-c2ccccc2-c2nnn[nH]2)cc1"
assay_value = 3

[[record]]
compound = "CC(CN(C)C)CN1c2ccccc2CCc2ccccc21 (stereo not given)"
assay_value = 1


Input line: Give the measured HepSE_Combined Scores for "CCC[C@H](N[C@@H](C)C(=O)N1[C@H](C(=O)O)C[C@@H]2CCCC[C@@H]21)C(=O)OCC"
Output line: 3

Input line: Look up and state reported HepSE_Combined Scores for CN(C)CCOC(c1ccc(Cl)cc1)c1ccccn1 (stereo not given)
Output line: 0

Input line: Using the record for "Cc1cnc(NC(=O)C2=C(O)c3ccccc3S(=O)(=O)N2C)s1" , state its measured HepSE_Combined Scores.
Output line: 4

Input line: State, in one line, measured HepSE_Combined Scores of "CC[C@H]1OC(=O)[C@H](C)[C@@H](O[C@H]2C[C@@](C)(OC)[C@@H](O)[C@H](C)O2)[C@H](C)[C@@H](O[C@@H]2O[C@H](C)C[C@H](N(C)C)[C@H]2O)[C@](C)(OC)C[C@@H](C)C(=O)[C@H](C)[C@@H](O)[C@]1(C)O"
Output line: 4

Input line: Fill in HepSE_Combined Scores for record "C=C(c1ccc(C(=O)O)cc1)c1cc2c(cc1C)C(C)(C)CCC2(C)C"
Output line: 2
